Test Method Notes: UV absorption properties (λmax, molar extinction coefficient ε, efficiency E 1%, 1 cm)
Format: physicochemical
Test Settings: Table 13B, miscellaneous compounds
Measurement Name: λmax (nm)

CC(C)=CCCC(C)CC(=O)C1=CN(c2ccc(N3C=C(C(=O)CC(C)CCC=C(C)C)C(C)(C)CC3)cc2)CCC1(C)C (centres unmarked) [drawing 212] = 359
C=CC(=O)C1=CN(c2ccc(C)cc2)CCC1(C)C = 348
CC1(C)CCN(C(C)(C)C)C=C1C(=O)c1ccc(N2CCN(c3ccc(C(=O)C4=CN(C(C)(C)C)CCC4(C)C)cc3)CC2)cc1 = 323
CCCCC(CC)CN(c1ccc(C(=O)C2=CN(C(C)(C)C)CCC2(C)C)cc1)c1ccc(C(=O)C2=CN(C(C)(C)C)CCC2(C)C)cc1.Cl (centres unmarked) = 316
CC1(C)CCN(C(C)(C)C)C=C1C(=O)N(CCCCN(C(=O)C1=CN(C(C)(C)C)CCC1(C)C)c1ccccc1)c1ccccc1 = 312
CCCCNc1ccc(C(=O)C2=CN(C(C)(C)C)CCC2(C)C)cc1 = 316
COc1cc(/C=C/C(=O)C2=CN(C(C)(C)C)CCC2(C)C)c(OC)cc1/C=C/C(=O)C1=CN(C(C)(C)C)CCC1(C)C = 402
CCCCC(CC)CNc1ccc(C(=O)C2=CN(C(C)(C)C)CCC2(C)C)cc1 (centres unmarked) = 318

---

Test Method Notes: UV absorption properties (λmax, molar extinction coefficient ε, efficiency E 1%, 1 cm)
Type: physicochemical
Measurement Name: UV λmax (nm)

Solved entries (count: 5):
CC1(C)CCN(C(C)(C)C)C=C1C(=O)Nc1ccc(Cc2ccc(NC(=O)C3=CN(C(C)(C)C)CCC3(C)C)cc2)cc1 [Compound 185] = 310
CC1(C)CCN(c2ccc(C(C)(C)C)cc2)C=C1C(=O)C1c2ccccc2-c2ccccc21 [Compound 205] = 339
CC1(C)CCN(c2ccc(C(C)(C)C)cc2)C=C1C(=O)Nc1ccccc1 [Compound 193] = 324
CC1(C)CCN(C(C)(C)C)C=C1C(=O)c1ccc(Br)cc1 [Compound 156] = 317
COc1ccc(C(=O)C(CCCCCC(=O)C2=CN(CC(C)C)CCC2(C)C)C(=O)c2ccc(C(C)(C)C)cc2)cc1 (centres unmarked) [Compound 5] = 306

I. Cc1nn(C)c(N2C=CC(C)(C)C=C2)c1C(=O)C(F)(F)F [Compound 200]
II. CC1(C)CCN(C(C)(C)C)C=C1C(=S)Nc1ccccc1 [Compound 182]
# min-compare on UV λmax between I and II Reply briefly: the label of your chosen item. I

---

Test Method Notes: UV absorption properties (λmax, molar extinction coefficient ε, efficiency E 1%, 1 cm)
Assay type: physicochemical
Test Settings: values in order of the λmax values
Measurement Name: ε (molar extinction coefficient) (M⁻¹ cm⁻¹)

A. CC(C)(C)c1ccc(C(=O)CC(=O)c2ccc(OCc3ccc(Br)cc3)cc2)cc1
B. CC(C)CN1C=C(C(=O)/C=C/c2ccc(C(F)(F)F)cc2)C(C)(C)CC1
C. Cc1cc(N2C=CC(C)(C)C=C2)n(C)n1
hey, can you rank those compounds up there by ε (molar extinction coefficient)? biggest number first please Provide your answer as the labels ordered per the instruction. A, B, C
(A: 35500 M⁻¹ cm⁻¹, B: 17000 M⁻¹ cm⁻¹, C: 11371 M⁻¹ cm⁻¹)
